EXPERIMENTAL SYSTEM: NF-kB p65 (RelA) (UniProt Q04206 Q04206:1-551)
Sequence (Q04206 whole entry, one chain of several): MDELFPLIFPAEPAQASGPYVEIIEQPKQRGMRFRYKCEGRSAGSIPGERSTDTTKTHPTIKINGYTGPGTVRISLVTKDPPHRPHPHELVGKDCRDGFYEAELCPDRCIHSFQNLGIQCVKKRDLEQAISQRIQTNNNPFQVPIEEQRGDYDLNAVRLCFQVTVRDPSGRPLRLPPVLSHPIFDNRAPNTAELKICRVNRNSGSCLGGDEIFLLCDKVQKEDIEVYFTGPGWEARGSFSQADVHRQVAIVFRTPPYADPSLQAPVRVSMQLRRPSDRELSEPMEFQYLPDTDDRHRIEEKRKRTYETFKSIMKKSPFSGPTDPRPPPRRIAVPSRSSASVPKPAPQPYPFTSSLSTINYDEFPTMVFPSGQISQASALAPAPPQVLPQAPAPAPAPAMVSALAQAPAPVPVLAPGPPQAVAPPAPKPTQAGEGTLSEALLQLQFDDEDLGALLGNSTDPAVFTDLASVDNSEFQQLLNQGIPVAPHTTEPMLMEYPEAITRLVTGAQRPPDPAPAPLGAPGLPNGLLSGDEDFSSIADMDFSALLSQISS
EXPERIMENT DESCRIPTION: competition
CONDITION PARAMETERS: protein: extract; tags: native, Jurkat nuclear extract (TransAM NF-kB p65 kit, Active Motif)
OBSERVATION TYPE: binding signal

Previously resolved entries follow.
1) SEQ-33 (dsDNA, PS (*): G*A*GGGGATTT*C*CCC / antisense 5'-GGGGAAA*T*C*CCCTC) DNA 1: GAGGGGATTTCCCC DNA 2: GGGGAAATCCCCTC = 0.021 IC50 ratio to SEQ-x
2) SEQ-26 (dsDNA) DNA 1: CCTTGAGGGGATTTCCCCC DNA 2: GGGGGAAATCCCCTCAAGG = 0.43 IC50 ratio to SEQ-I

Could you now consider this next binder?
Endpoint output: binding signal of SEQ-48 (dsDNA, PS (*): C*C*TTGAAGGGACTTTCCT*C*C / 3'-G*G*AACTTCC*C*T*GAAAGGA*G*G) DNA 1: CCTTGAAGGGACTTTCCTCC DNA 2: GGAGGAAAGTCCCTTCAAGG . Value?
0.2 IC50 ratio to SEQ-x
